In what follows, each item is paired with its AC50 for Adenosine receptor A2a (Homo sapiens, UniProt P29274).

Hello, please tell me recorded AC50 for this one: CC1CC(OC(=O)C(O)c2ccccc2)CC(C)(C)C1 (stereo not given) [CYCLANDELATE]
> 10 µM

Hello, please tell me recorded AC50 for this one: CCC[C@@]1(CCc2ccccc2)CC(O)=C([C@H](CC)c2cccc(NS(=O)(=O)c3ccc(C(F)(F)F)cn3)c2)C(=O)O1
> 30 µM

Hello, please tell me recorded AC50 for this one: Nc1c2c(nc3ccccc13)CCCC2O (stereo not given) [VELNACRINE]
> 30 µM

Hello, please tell me recorded AC50 for this one: OCCOCCN1CCN(C(c2ccccc2)c2ccc(Cl)cc2)CC1 (stereo not given) [HYDROXYZINE]
> 30 µM

Hello, please tell me recorded AC50 for this one: C=C(c1ccccc1OCc1cccc(Cl)c1)n1ccnc1 [CROCONAZOLE]
> 30 µM
